Exercise: for every item that follows, state its recorded PBM binding z-score.
# Test system: RXRa DBDmut IVT, anti-RXR (DBD mutation: RXRa K156A/R161A, NR concentration 90 nM)
# METHOD: PBM binding z-score (relative to random genomic background probes); higher = stronger binding; sequences stand for … in GC…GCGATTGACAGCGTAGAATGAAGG
Give the figure only, with no unit attached.

Request: Report its PBM binding z-score with RXRa DBDmut IVT, anti-RXR (DBD mutation: RXRa K156A/R161A, NR concentration 90 nM) as the test system: "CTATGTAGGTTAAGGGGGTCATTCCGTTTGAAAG"
Response: 2.32

Request: Given "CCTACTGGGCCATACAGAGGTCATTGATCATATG" , report its PBM binding z-score on RXRa DBDmut IVT, anti-RXR (DBD mutation: RXRa K156A/R161A, NR concentration 90 nM).
Response: 0.759

Request: Report value: PBM binding z-score, system: RXRa DBDmut IVT, anti-RXR (DBD mutation: RXRa K156A/R161A, NR concentration 90 nM), sequence: "CCGAGTAGGTTACGAGGAGGCATTCAGTGCGAAT"
Response: 0.082

Request: State PBM binding z-score on RXRa DBDmut IVT, anti-RXR (DBD mutation: RXRa K156A/R161A, NR concentration 90 nM). Entry: "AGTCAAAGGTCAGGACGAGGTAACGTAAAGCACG"
Response: 1.32

Request: Retrieve PBM binding z-score on RXRa DBDmut IVT, anti-RXR (DBD mutation: RXRa K156A/R161A, NR concentration 90 nM); query "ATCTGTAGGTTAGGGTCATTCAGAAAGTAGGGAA"
Response: 2.35

Request: Answer with PBM binding z-score of "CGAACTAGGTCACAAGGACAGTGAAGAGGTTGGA" measured for RXRa DBDmut IVT, anti-RXR (DBD mutation: RXRa K156A/R161A, NR concentration 90 nM).
Response: 1.32

Request: State measured PBM binding z-score of the sequence "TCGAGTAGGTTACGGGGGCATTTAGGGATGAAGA" with RXRa DBDmut IVT, anti-RXR (DBD mutation: RXRa K156A/R161A, NR concentration 90 nM).
Response: 2.03

Request: Return reported PBM binding z-score for target or system RXRa DBDmut IVT, anti-RXR (DBD mutation: RXRa K156A/R161A, NR concentration 90 nM), item "TGTCAAAGCTCAAAGGTAACGTAAGTATCCACAC" .
Response: -1

Request: Name the recorded PBM binding z-score of "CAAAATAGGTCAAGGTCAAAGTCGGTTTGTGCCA" , assay system RXRa DBDmut IVT, anti-RXR (DBD mutation: RXRa K156A/R161A, NR concentration 90 nM).
Response: 2.89

Request: Specify PBM binding z-score for "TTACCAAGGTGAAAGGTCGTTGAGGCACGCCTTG" , system RXRa DBDmut IVT, anti-RXR (DBD mutation: RXRa K156A/R161A, NR concentration 90 nM).
Response: 0.589

Request: State PBM binding z-score on RXRa DBDmut IVT, anti-RXR (DBD mutation: RXRa K156A/R161A, NR concentration 90 nM). Entry: "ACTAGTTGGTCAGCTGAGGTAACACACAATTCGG"
Response: 0.36

Request: State the measured PBM binding z-score (RXRa DBDmut IVT, anti-RXR (DBD mutation: RXRa K156A/R161A, NR concentration 90 nM)) of "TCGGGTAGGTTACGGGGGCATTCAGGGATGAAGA"
Response: 3.04
